experiment: Pharmacokinetics in nude mice after single IP or PO dose; assay type: in vivo, athymic nude (Nu/Nu) mice; settings: female, athymic nude (Nu/Nu), mouse, plasma, po
ENDPOINT NAME: Vd/F

- CCn1c2ccccc2c2cc(Nc3ccnc(NCCCN4CCOCC4)n3)ccc21: 6.5 to 10.6 L

Reference source for all entries: paper PMC4306626
